Ki for UniProt P20309, merged from several publications.
Sequence (P20309 whole entry): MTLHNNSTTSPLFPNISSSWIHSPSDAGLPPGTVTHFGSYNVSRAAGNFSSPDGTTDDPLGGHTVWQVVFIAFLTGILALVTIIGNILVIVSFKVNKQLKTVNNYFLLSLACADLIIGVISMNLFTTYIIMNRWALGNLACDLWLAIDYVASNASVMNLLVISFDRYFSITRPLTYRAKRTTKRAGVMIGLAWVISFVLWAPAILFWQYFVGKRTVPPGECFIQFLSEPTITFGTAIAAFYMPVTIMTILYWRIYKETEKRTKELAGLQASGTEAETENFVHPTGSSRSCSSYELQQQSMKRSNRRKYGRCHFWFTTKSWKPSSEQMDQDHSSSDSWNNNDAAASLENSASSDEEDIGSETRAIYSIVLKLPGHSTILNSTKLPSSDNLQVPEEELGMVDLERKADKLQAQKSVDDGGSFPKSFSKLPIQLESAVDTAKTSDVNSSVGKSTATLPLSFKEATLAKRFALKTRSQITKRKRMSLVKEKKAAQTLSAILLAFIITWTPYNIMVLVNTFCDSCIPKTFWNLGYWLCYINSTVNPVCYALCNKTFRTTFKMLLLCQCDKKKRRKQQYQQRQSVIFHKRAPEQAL
Please respond with the number in nM and leave the unit unwritten.

Illustrative cases are given below, each with its answer.
> print(dat)
                                   compound  value.measured
1  CC1CCCCN1C(=O)CCN1CCCc2ccccc21 (centres undefined)            8510
2  Cc1c(NC2CC2)nc(C2CC2)nc1N1CCC(Cc2ccccc2)CC1             790

-- ask // fetch UniProt P20309 Ki for O=C1CCc2ccccc2N1CCCN1CCC(CCCCCCCCCCCO)CC1
-- reply 575

-- ask Please state recorded Ki (tested on UniProt P20309) of CCC(C1=C(CCN(C)C)Cc2ccccc21)c1ccccn1 (centres undefined)
-- reply 309

-- ask // map C[N+]1(C)CCC[C@@H]1[C@@H]1C[S+]([O-])[C@](c2ccccc2)(C2CCCCC2)O1.[I-] (stereo in doubt; (-)-12) to recorded Ki (system: UniProt P20309)
-- reply 288

-- ask Find the measured Ki: item Cc1c(NC2CC2)nc(C2CC2)nc1N1CCC(=O)CC1 , target or system UniProt P20309.
-- reply 3200

-- ask Record lookup: for UniProt P20309, what Ki belongs to Cc1c(NCc2cccs2)nc(C2CC2)nc1NC1CC1 ?
-- reply 126

-- ask Any idea what Ki came out for CC(C1=C(CCN(C)C(C)C)Cc2ccccc21)c1ccccn1 (centres undefined) on UniProt P20309?
-- reply 1820
